ASSAYED TARGET: human GPR119 (Homo sapiens, UniProt Q8TDV5)
ASSAY TEXT: Measurement of GPR119 signaling by cAMP (LANCE cAMP kit or HTRF) in HEK293 cells transfected with human GPR119
EXPERIMENTAL CONTEXT: agonist cAMP response in HEK293 cells stably transfected with human GPR119; patent does not say which of the two cAMP formats (LANCE or HTRF)
Item-by-item account of pEC50
Expect pEC50 as a plain number equal to -log10 of the molar concentration.

CN(C(=O)Cc1ccc(OCC[C@@H]2C[C@@H]2C2CCN(c3ncc(Cl)cn3)CC2)cc1F)C1CCOCC1 = 8.89
CC1(CNC(=O)Cc2ccc(OCC[C@@H]3C[C@@H]3C3CCN(c4ncc(Cl)cn4)CC3)cc2F)CCC1 = 8.29
O=C(Cc1ccc(OCC[C@@H]2C[C@@H]2C2CCN(c3ncc(Cl)cn3)CC2)cc1F)N1CC(O)(C(F)(F)F)C1 = 9.17
CC1CCN(C(=O)Cc2ccc(OCC[C@@H]3C[C@@H]3C3CCN(c4ncc(Cl)cn4)CC3)cc2F)CC1 = 8.40
O=C(Cc1ccc(OCC[C@@H]2C[C@@H]2C2CCN(c3ncc(Cl)cn3)CC2)cc1F)N1CCc2sc(C(F)(F)F)nc2C1 = 8.77

Which value of pEC50 has been reported for `O=C(Cc1ccc(OCC[C@@H]2C[C@@H]2C2CCN(c3ncc(Cl)cn3)CC2)cc1F)N1CCc2cccnc2C1` in the records?
8.96

What do you have for `O=C(Cc1ccc(OCC[C@@H]2C[C@@H]2C2CCN(c3ncc(Cl)cn3)CC2)cc1F)N1CCc2nccnc2C1` ?
9.02

Next compound: `COC(=O)Cc1ccc(OCC[C@@H]2C[C@@H]2C2CCN(c3ncc(Cl)cn3)CC2)cc1F`
9.15

Now this one: `COCc1cnc(N2CCC([C@H]3C[C@H]3CCOc3ccc(CC(=O)N4CCC[C@@H]4C)c(F)c3)CC2)nc1`
8.80

// next record C[C@H]1CCCN1C(=O)Cc1ccc(OCC[C@@H]2C[C@@H]2C2CCN(c3ncc(Cl)cn3)CC2)cc1F [Example 73]
8.57

----------
ASSAYED TARGET: UniProtKB Q8TDV5
Sequence (Q8TDV5 1-308 limits assumed): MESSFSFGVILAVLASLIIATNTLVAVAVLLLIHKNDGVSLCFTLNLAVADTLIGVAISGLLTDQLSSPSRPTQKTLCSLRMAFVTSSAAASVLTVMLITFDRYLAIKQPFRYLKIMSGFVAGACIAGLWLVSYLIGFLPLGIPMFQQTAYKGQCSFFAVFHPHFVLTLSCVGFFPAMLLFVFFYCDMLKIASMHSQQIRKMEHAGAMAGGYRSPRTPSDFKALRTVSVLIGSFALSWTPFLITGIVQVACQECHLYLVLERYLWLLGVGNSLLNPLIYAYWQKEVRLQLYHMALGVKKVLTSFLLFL
ASSAY TEXT: Measurement of GPR119 signaling by cAMP (LANCE cAMP kit or HTRF) in HEK293 cells transfected with human GPR119
EXPERIMENTAL CONTEXT: agonist cAMP response in HEK293 cells stably transfected with human GPR119; patent does not say which of the two cAMP formats (LANCE or HTRF)
Binning rule for recorded EC50: b0 (below 1 nM), b1 (1 nM to below 2 nM), b2 (2 nM or more)

Before answering, review these 2 worked examples.
O=C(Cc1ccc(OCC[C@@H]2C[C@@H]2C2CCN(c3ncc(Cl)cn3)CC2)cc1F)N1CCn2c(Cc3ccccc3)cnc2C1 = b2
COCc1cnc(N2CCC([C@H]3C[C@H]3CCOc3cc(F)c(CC(=O)N4CC(O)C4)c(F)c3)CC2)nc1 = b1

Any idea which band `COc1cnc(N2CCC([C@H]3C[C@H]3CCOc3cc(F)c(CC(=O)N(C)C)c(F)c3)CC2)nc1` is in?
b0

And what about the molecule `COCc1cnc(N2CCC([C@H]3C[C@H]3CCOc3ccc(Cc4nnco4)c(F)c3)CC2)nc1` ?
b2
